Data provenance: the supplement of paper PMC7877785

assay: self-splicing fitness, log relative to wild type (ln ratio); higher = more splicing; Tetrahymena group I intron in knt gene, E. coli kanamycin selection, DiMSum; sequences stand for … in CUCUCU…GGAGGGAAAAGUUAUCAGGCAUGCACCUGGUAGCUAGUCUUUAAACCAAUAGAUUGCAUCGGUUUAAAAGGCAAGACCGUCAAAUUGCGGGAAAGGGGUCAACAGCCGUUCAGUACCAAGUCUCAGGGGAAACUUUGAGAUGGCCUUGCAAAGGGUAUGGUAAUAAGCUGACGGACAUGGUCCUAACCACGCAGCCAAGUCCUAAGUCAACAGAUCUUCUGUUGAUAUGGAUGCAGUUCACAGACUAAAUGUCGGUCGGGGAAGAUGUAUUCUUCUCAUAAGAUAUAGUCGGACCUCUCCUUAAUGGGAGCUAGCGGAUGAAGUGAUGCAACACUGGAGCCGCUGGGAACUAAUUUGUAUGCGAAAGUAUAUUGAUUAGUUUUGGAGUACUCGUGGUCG; conditions: 37 °C;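 note: selection with 25 µg/mL kanamycin versus none on LB agar overnight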
Use Condition met when the recorded self-splicing fitness (ln) is no lower than -1; use Condition not met when it is lower.

Query: Decide: self-splicing fitness (ln) of CAUAAGCAAUAUUACGGUAU >= -1?
Reply: Condition not met

Query: Is it the case that CCAUAGCAAUAUUACGUACA has self-splicing fitness (ln) reaching or exceeding -1?
Reply: Condition not met

Query: Please check the record UGGCAGCAAUAUUACGCGAU and state if its self-splicing fitness (ln) is at or above -1.
Reply: Condition not met

Query: Identify whether the reported self-splicing fitness (ln) of the following sequence is -1 or greater: AAGCAGCAAUAUUACGGCCC
Reply: Condition met

Query: Would you say UGAUAGCAAUAUUACGUCCG shows self-splicing fitness (ln) at minimum -1?
Reply: Condition met

Query: Please indicate if the recorded self-splicing fitness (ln) for AUCAAGCAAUAUUACGCUUC meets or exceeds -1.
Reply: Condition not met

Query: Decide: is the reported value of self-splicing fitness (ln) for UUUCAGCAAUAUUACGGUUG equal to or greater than -1?
Reply: Condition not met

Query: # check: self-splicing fitness (ln) of GUAUAGCAAUAUUACGGAGU is greater than or equal to -1
Reply: Condition not met

Query: Does the reported self-splicing fitness (ln) for CGACAGCAAUAUUACGGAAA fall at or above the -1 mark?
Reply: Condition not met

Query: Check the entry CCCGAGCAAUAUUACGCUAA : does self-splicing fitness (ln) equal or exceed -1?
Reply: Condition not met

Query: Record CGUUAGCAAUAUUACGGCAG ; criterion: self-splicing fitness (ln) no lower than -1. Met?
Reply: Condition met

Query: Test whether the sequence AGUGAGCAAUAUUACGAUUA records self-splicing fitness (ln) of -1 or higher.
Reply: Condition not met

Query: Hello, I need to know if CUCAAGCAAUAUUACGAUCG has measured self-splicing fitness (ln) not below -1. Thanks!
Reply: Condition met

Query: Is the recorded value of self-splicing fitness (ln) equal to or greater than -1 for this sequence? UCCAAGCAAUAUUACGUUAU
Reply: Condition not met

Query: Please tell me: is the sequence CUAAAGCAAUAUUACGAACG at or over -1 in terms of self-splicing fitness (ln)?
Reply: Condition met

Query: Is it the case that CUUCAGCAAUAUUACGGCGU has self-splicing fitness (ln) reaching or exceeding -1?
Reply: Condition not met

Query: hey, is self-splicing fitness (ln) for this one >= -1? AGUCAGCAAUAUUACGACUA
Reply: Condition met

Query: For this sequence, is measured self-splicing fitness (ln) -1 or higher? AUGAAGCAAUAUUACGGCUG
Reply: Condition met

Query: Exam item: decide whether the reported self-splicing fitness (ln) for CGAUAGCAAUAUUACGUGCA is at least -1.
Reply: Condition not met

Query: API: above_or_equal(metric=self-splicing fitness (ln), cutoff=-1) for item GCACAGCAAUAUUACGAUGA
Reply: Condition met

Query: // inclusive: self-splicing fitness (ln) at least -1? input: GAGGAGCAAUAUUACGGUGU
Reply: Condition not met

Query: Confirm if self-splicing fitness (ln) reported for the sequence CCCGAGCAAUAUUACGAUGC is -1 or above.
Reply: Condition not met

Query: Is self-splicing fitness (ln) at least -1? Consider GACGAGCAAUAUUACGCUGC
Reply: Condition not met

Query: # check: self-splicing fitness (ln) of ACGGAGCAAUAUUACGGUAU is greater than or equal to -1
Reply: Condition not met

Query: Answer whether self-splicing fitness (ln) of AAGUAGCAAUAUUACGUUAU is greater than or equal to -1.
Reply: Condition met

Query: Given GUAUAGCAAUAUUACGCCGG , state whether its self-splicing fitness (ln) is at least -1.
Reply: Condition not met

Query: # check: self-splicing fitness (ln) of ACCCAGCAAUAUUACGACGC is greater than or equal to -1
Reply: Condition met

Query: Hi team, for ACUCAGCAAUAUUACGUCGG , is the recorded self-splicing fitness (ln) at or above -1?
Reply: Condition not met

Query: Tell me whether self-splicing fitness (ln) is at least -1 here: UCCAAGCAAUAUUACGGCCC
Reply: Condition not met

Query: Confirm if self-splicing fitness (ln) reported for the sequence GGGCAGCAAUAUUACGAAUU is -1 or above.
Reply: Condition met

Query: Hi team, for CCCGAGCAAUAUUACGACCA , is the recorded self-splicing fitness (ln) at or above -1?
Reply: Condition not met

Query: Say whether GUGGAGCAAUAUUACGUACG shows self-splicing fitness (ln) of -1 or more.
Reply: Condition not met

Query: Can CGACAGCAAUAUUACGAAUU be said to have self-splicing fitness (ln) at or above -1?
Reply: Condition not met

Query: # bool: self-splicing fitness (ln) of GUCUAGCAAUAUUACGGGUC >= -1
Reply: Condition not met

###

assay: self-splicing fitness, log relative to wild type (ln ratio); higher = more splicing; Tetrahymena group I intron in knt gene, E. coli kanamycin selection, DiMSum; sequences stand for … in CUCUCU…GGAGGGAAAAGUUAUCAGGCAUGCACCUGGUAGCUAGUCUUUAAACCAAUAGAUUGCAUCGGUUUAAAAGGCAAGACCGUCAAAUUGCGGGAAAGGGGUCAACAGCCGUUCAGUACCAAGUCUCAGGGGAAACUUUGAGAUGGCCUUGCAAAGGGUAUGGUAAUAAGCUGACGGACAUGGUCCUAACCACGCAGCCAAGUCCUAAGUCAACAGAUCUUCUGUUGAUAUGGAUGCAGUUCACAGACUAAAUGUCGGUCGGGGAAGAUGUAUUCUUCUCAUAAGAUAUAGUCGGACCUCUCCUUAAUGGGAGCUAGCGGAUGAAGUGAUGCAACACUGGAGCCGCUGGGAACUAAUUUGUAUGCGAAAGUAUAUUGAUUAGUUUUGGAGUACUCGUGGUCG; conditions: 37 °C
experimental_endpoint: self-splicing fitness (ln)
Quick one: just the number, no unit, thanks!

Item: AGAUAGCAAUAUUACGAGUC | self-splicing fitness (ln): -2.14

Entry GAACAGCAAUAUUACGUGUC ; self-splicing fitness (ln) = -3.22

Record UUCCAGCAAUAUUACGUGUU . Reported self-splicing fitness (ln): -2.48

self-splicing fitness (ln) measured on AAGAAGCAAUAUUACGAUAG = -1.87

Short answer for UGUUAGCAAUAUUACGAUUA : self-splicing fitness (ln) was 0.424

What the record says about GACAAGCAAUAUUACGAACC : self-splicing fitness (ln) is -0.514

The reported value for CUAUAGCAAUAUUACGACUG in terms of self-splicing fitness (ln) is -0.119

Briefly, self-splicing fitness (ln) measured for AACUAGCAAUAUUACGAAAU : -0.94

response.value for GCUCAGCAAUAUUACGCGCC (field: self-splicing fitness (ln)) = -1.92

Input AUUGAGCAAUAUUACGUUCU . Output self-splicing fitness (ln): -1.22

The measured self-splicing fitness (ln) associated with UUAAAGCAAUAUUACGAUAA reads 0.431

Sample CAGUAGCAAUAUUACGUCUU ; self-splicing fitness (ln) observed: 0.135

Short answer for CACGAGCAAUAUUACGCUUA : self-splicing fitness (ln) was -0.611

response.value for UAGCAGCAAUAUUACGGGGG (field: self-splicing fitness (ln)) = -2.98

The recorded self-splicing fitness (ln) for entry CACCAGCAAUAUUACGUUAC equals -2.45

Memo: CGCUAGCAAUAUUACGAGCA , reported self-splicing fitness (ln): 0.344

Just so you know, measured self-splicing fitness (ln) for GGAAAGCAAUAUUACGGCGC came out at 0.131

For GGACAGCAAUAUUACGGACU the sequence record lists self-splicing fitness (ln) as -0.461

Form: sequence = UAGUAGCAAUAUUACGUACC ; self-splicing fitness (ln) = -1.21

Notebook: CGUAAGCAAUAUUACGUUUC , self-splicing fitness (ln) read as -1.92

sequence UGAGAGCAAUAUUACGCGUC , self-splicing fitness (ln) observed: -1.37

Measured self-splicing fitness (ln), GCUCAGCAAUAUUACGUUAG : -0.765

Input CUGGAGCAAUAUUACGUAUG . Output self-splicing fitness (ln): -0.437

# sequence AUACAGCAAUAUUACGAUUU ; its self-splicing fitness (ln) = 0.498

Record summary for CAUAAGCAAUAUUACGGUCC : reported self-splicing fitness (ln) = -2.28

Record summary for GAUAAGCAAUAUUACGGGAU : reported self-splicing fitness (ln) = -1.89

For record UGCGAGCAAUAUUACGUUUC the listed self-splicing fitness (ln) is -2.62

// sample AUUUAGCAAUAUUACGAUUU , its self-splicing fitness (ln) was 0.23

Field self-splicing fitness (ln) (entry CUACAGCAAUAUUACGUCGG ) reads -0.736

The sequence AGAUAGCAAUAUUACGCAAC showed self-splicing fitness (ln) equal to -1.39

Measured self-splicing fitness (ln) of UAAAAGCAAUAUUACGGGGU : -3.21

Looking up CAUUAGCAAUAUUACGUUUG , I see its self-splicing fitness (ln) listed as -1.51

Looking up CAGCAGCAAUAUUACGCCUG , I found its self-splicing fitness (ln) recorded as -2.35

Record GUCAAGCAAUAUUACGCUGA . Reported self-splicing fitness (ln): -3.74

self-splicing fitness (ln) in this record for UCGUAGCAAUAUUACGCGUC : -2.59

GET /value?item= GCUGAGCAAUAUUACGUCGA &field=self-splicing fitness (ln) returns -1.72

Lab note: measured self-splicing fitness (ln) of AGGAAGCAAUAUUACGGUCA was 0.202

Quick note, self-splicing fitness (ln) for CCAGAGCAAUAUUACGUCUU landed at -3.03

Entry under test: GUUCAGCAAUAUUACGGAAC . Its self-splicing fitness (ln) was -2.09

// self-splicing fitness (ln) value for GCGCAGCAAUAUUACGAUGA : -0.33

Kindly note the recorded self-splicing fitness (ln) for UCUGAGCAAUAUUACGCCGG , which is -0.975

Item: GAGGAGCAAUAUUACGGGCG | self-splicing fitness (ln): -1.56

self-splicing fitness (ln) in this record for CAAGAGCAAUAUUACGGUCA : -2.45

Entry under test: GAUAAGCAAUAUUACGGGAC . Its self-splicing fitness (ln) was -1.18

Lookup result for GGAAAGCAAUAUUACGCGAU ; measured self-splicing fitness (ln): -1.02

For this sequence ( AGUCAGCAAUAUUACGAAAU ), measured self-splicing fitness (ln) is -0.398

self-splicing fitness (ln) reported for this sequence GGGCAGCAAUAUUACGACUA : 0.125

The value of self-splicing fitness (ln) measured for the sequence UUGGAGCAAUAUUACGGCCA turned out to be -0.299

CGCAAGCAAUAUUACGCGUC yielded self-splicing fitness (ln) of -3.31

According to the records, this sequence UGUAAGCAAUAUUACGGAAU displays self-splicing fitness (ln) of -2.49

Per the record, GCCUAGCAAUAUUACGACUC has self-splicing fitness (ln) of 0.0998

Item: AUUUAGCAAUAUUACGGCUU | self-splicing fitness (ln): 0.0373

Reported self-splicing fitness (ln) for CGUAAGCAAUAUUACGGUUC was -2.59

Value of measured self-splicing fitness (ln) for the entry GCCCAGCAAUAUUACGAAGU : 0.22

Recorded self-splicing fitness (ln) (sequence AUCGAGCAAUAUUACGAAGU ): -1.49

The sequence AUGUAGCAAUAUUACGGCUU showed self-splicing fitness (ln) equal to 0.71

get_value(item= UACAAGCAAUAUUACGGUAA , readout=self-splicing fitness (ln)) returns -1.15

// UGCGAGCAAUAUUACGUCUU : self-splicing fitness (ln) value = -2.04

The reported value for AAGCAGCAAUAUUACGGUUA in terms of self-splicing fitness (ln) is 0.0491

GET /value?item= ACCCAGCAAUAUUACGUCUC &field=self-splicing fitness (ln) returns -0.796

Sample UAUCAGCAAUAUUACGCCGG ; self-splicing fitness (ln) observed: 0.843

GGACAGCAAUAUUACGGCGG has a reported self-splicing fitness (ln) of -1.52

// recorded self-splicing fitness (ln) for GAACAGCAAUAUUACGCCUA : -0.336

// field: self-splicing fitness (ln); key: CUUUAGCAAUAUUACGGGUU ; value = -0.807

Reported self-splicing fitness (ln) for GAUAAGCAAUAUUACGACGG was -2.34

Entry UAGUAGCAAUAUUACGCGGG — recorded self-splicing fitness (ln) = -2.49

Please fill in: self-splicing fitness (ln) reported for CCUAAGCAAUAUUACGCUCU = -2.94
